The measurements presented in this section are drawn from the supplement of paper PMC11208160.

# assay: recombinant barcode read abundance after kanamycin selection (control-corrected) (log10(CPM+1)); higher = more efficient recombination; sequences stand for … in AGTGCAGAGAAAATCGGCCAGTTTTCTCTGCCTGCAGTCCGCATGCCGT…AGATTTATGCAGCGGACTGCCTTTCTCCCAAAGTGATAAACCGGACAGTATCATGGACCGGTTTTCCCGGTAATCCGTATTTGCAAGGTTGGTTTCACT; site = the 11-nt target
Entries get a class label from measured recombinant barcode read abundance (log10). See ranges: A: < 0.08; B: ≥ 0.08 and < 0.3; C: ≥ 0.3

sequence.chain	category
GTCTCCTCTTGGGTTCTAACCTGTTGCCT (site GTCGCCTCTAG)	A
CTACAACCTTGGGTTCTAACCTGTTGCTT (site CTACATCCTAA)	A
ACTAGTCCTTGGGTTCTAACCTGTTGCGT (site ACTAGTCCTAG)	B
CTCGCTACTTGGGTTCTAACCTGTTGCTT (site CTCGCTACTAA)	B
TCCAGTACTTGGGTTCTAACCTGTTGCAT (site TCCGGTACTAT)	C

Kindly state the category for this sequence: GCCGAGTCTTGGGTTCTAACCTGTTGCTC (site GCCGAGTCTAA)
B

Kindly state the category for this sequence: GAGTTGCCTTGGGTTCTAACCTGTTGCCT (site GAGTTGCCTAG)
C

Kindly state the category for this sequence: CTTTGATCTTGGGTTCTAACCTGTTGCGT (site CTTTGATCTAC)
C

====

Below, each entry is listed with its recorded recombinant barcode read abundance (log10).
# assay: recombinant barcode read abundance after kanamycin selection (control-corrected) (log10(CPM+1)); higher = more efficient recombination; sequences stand for … in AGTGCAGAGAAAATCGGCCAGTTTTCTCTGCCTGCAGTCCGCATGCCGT…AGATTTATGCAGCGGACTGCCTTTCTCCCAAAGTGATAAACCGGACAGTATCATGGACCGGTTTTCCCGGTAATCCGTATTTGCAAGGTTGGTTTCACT; site = the 11-nt target
Returns: the value as a bare number; no unit string appended.

// below: answered sequences
sequence.chain	observed.measurement
CTCGTTACTTGGGTTCTAACCTGTTGCCT (site CTCGTTACTAG)	0.682
TCCCATCCTTGGGTTCTAACCTGTTGCCT (site TCCCATTCTAG)	0.592
CTATGACCTTGGGTTCTAACCTGTTGCTG (site CTATGACCTCA)	1.91

Looking up TAGTTAGCTTGGGTTCTAACCTGTTGCCG (site TAGTTAGCTCG) , I see its recombinant barcode read abundance (log10) listed as 0.666

Looking up ATGTCCTCTTGGGTTCTAACCTGTTGCCT (site ATGTCCTCTAG) , I see its recombinant barcode read abundance (log10) listed as 1.5

Looking up AGGAACCCTTGGGTTCTAACCTGTTGCTG (site AGGAACCCTCA) , I see its recombinant barcode read abundance (log10) listed as 1.78

Looking up TCCGACCCTTGGGTTCTAACCTGTTGCAC (site TCCGTCCCTAT) , I see its recombinant barcode read abundance (log10) listed as 0.0486

Looking up ACGACTGCTTGGGTTCTAACCTGTTGCCT (site ACGACTTCTAG) , I see its recombinant barcode read abundance (log10) listed as 0.247

Looking up CTTTAAGCTTGGGTTCTAACCTGTTGCTA (site CTTTAAGCTTA) , I see its recombinant barcode read abundance (log10) listed as 0.195

Looking up AACTCATCTTGGGTTCTAACCTGTTGCCT (site AACTAATCTAG) , I see its recombinant barcode read abundance (log10) listed as 0.0366

Looking up GTTGGCGCTTGGGTTCTAACCTGTTGCCT (site GTAGGCGCTAG) , I see its recombinant barcode read abundance (log10) listed as 0.276

Looking up AGGGGCACTTGGGTTCTAACCTGTTGCCG (site ACGGTCACTCG) , I see its recombinant barcode read abundance (log10) listed as 0.104

Looking up CCTCATTCTTGGGTTCTAACCTGTTGCTT (site CCTCATTCTAA) , I see its recombinant barcode read abundance (log10) listed as 0.199

Looking up TGCCATCCTTGGGTTCTAACCTGTTGCAT (site AGCCATCCTAT) , I see its recombinant barcode read abundance (log10) listed as 0.111

Looking up CTCTCGTCTTGGGTTCTAACCTGTTGCGG (site CTCTCGTCTCC) , I see its recombinant barcode read abundance (log10) listed as 1.16

Looking up TATTTGCCTTGGGTTCTAACCTGTTGCTG (site TATTTGCCTCA) , I see its recombinant barcode read abundance (log10) listed as 0.0916

Looking up AAGCCAACTTGGGTTCTAACCTGTTGCCT (site AAGCGAACTAG) , I see its recombinant barcode read abundance (log10) listed as 0.181

====

# assay: recombinant UMI read abundance after kanamycin selection (control-corrected) (log10(CPM+1)); higher = more efficient recombination; extreme values may be limits of the assay; sequences stand for … in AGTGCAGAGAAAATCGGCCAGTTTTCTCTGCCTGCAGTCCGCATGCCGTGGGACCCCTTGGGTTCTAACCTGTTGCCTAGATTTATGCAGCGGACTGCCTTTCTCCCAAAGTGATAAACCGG…AGGTTGGTTTCACT; site = the 11-nt donor
// condition not met strictly below 0.04 in recombinant UMI read abundance (log10); condition met otherwise

I'd appreciate it if you could say whether GTCAAACCATGGACCGGTTTTCCCGGTAATCCGTATTTGGT (site GGCAAACCTAC) has recombinant UMI read abundance (log10) at least equal to 0.04.
condition not met

I'd appreciate it if you could say whether CTGCTTCCATGGACCGGTTTTCCCGGTAATCCGTATTTGCT (site CTGCTCCCTAG) has recombinant UMI read abundance (log10) at least equal to 0.04.
condition met

I'd appreciate it if you could say whether AATCGAGCATGGACCGGTTTTCCCGGTAATCCGTATTTGGA (site AATCGAGCTTC) has recombinant UMI read abundance (log10) at least equal to 0.04.
condition met

I'd appreciate it if you could say whether TCGTTTACATGGACCGGTTTTCCCGGTAATCCGTATTTGCT (site ACGTTTACTAG) has recombinant UMI read abundance (log10) at least equal to 0.04.
condition not met

I'd appreciate it if you could say whether GATTCGACATGGACCGGTTTTCCCGGTAATCCGTATTTGAC (site GATTAGACTGT) has recombinant UMI read abundance (log10) at least equal to 0.04.
condition not met

I'd appreciate it if you could say whether ATGTAGGCATGGACCGGTTTTCCCGGTAATCCGTATTTGGT (site ATGTAGGCTGC) has recombinant UMI read abundance (log10) at least equal to 0.04.
condition met

I'd appreciate it if you could say whether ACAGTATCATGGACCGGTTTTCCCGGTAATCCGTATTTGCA (site ACAGGATCTGG) has recombinant UMI read abundance (log10) at least equal to 0.04.
condition not met

I'd appreciate it if you could say whether AGCATTTCATGGACCGGTTTTCCCGGTAATCCGTATTTGAC (site AGCATTTCTGT) has recombinant UMI read abundance (log10) at least equal to 0.04.
condition met

I'd appreciate it if you could say whether CGTTTTGCATGGACCGGTTTTCCCGGTAATCCGTATTTGCT (site CGTTTAGCTAG) has recombinant UMI read abundance (log10) at least equal to 0.04.
condition not met

I'd appreciate it if you could say whether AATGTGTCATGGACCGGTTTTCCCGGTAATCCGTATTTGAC (site AGTGTGTCTGT) has recombinant UMI read abundance (log10) at least equal to 0.04.
condition not met

I'd appreciate it if you could say whether TGGAAGTCATGGACCGGTTTTCCCGGTAATCCGTATTTGGC (site TGGAAGTCTGC) has recombinant UMI read abundance (log10) at least equal to 0.04.
condition met

I'd appreciate it if you could say whether TTAAGGCCATGGACCGGTTTTCCCGGTAATCCGTATTTGAC (site TTAAGGCCTGT) has recombinant UMI read abundance (log10) at least equal to 0.04.
condition not met

I'd appreciate it if you could say whether CCCTGTCCATGGACCGGTTTTCCCGGTAATCCGTATTTGCA (site CCCCGTCCTTG) has recombinant UMI read abundance (log10) at least equal to 0.04.
condition met

====

Below, each entry is listed with its recorded recombinant UMI read abundance (log10).
# assay: recombinant UMI read abundance after kanamycin selection (control-corrected) (log10(CPM+1)); higher = more efficient recombination; extreme values may be limits of the assay; sequences stand for … in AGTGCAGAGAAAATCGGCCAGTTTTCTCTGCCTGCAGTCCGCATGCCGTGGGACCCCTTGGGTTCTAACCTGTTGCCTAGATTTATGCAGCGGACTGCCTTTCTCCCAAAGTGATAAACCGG…AGGTTGGTTTCACT; site = the 11-nt donor
Returns: the value as a bare number; no unit string appended.

// below: answered sequences
sequence.chain	recombinant UMI read abundance (log10)
GTGCATTCATGGACCGGTTTTCCCGGTAATCCGTATTTGGT (site GTGCATGCTAC)	0
ATACCGTCATGGACCGGTTTTCCCGGTAATCCGTATTTGGG (site ATACCGTCTCC)	0.0133
TTCGCTGCATGGACCGGTTTTCCCGGTAATCCGTATTTGTG (site TTTGCTGCTCA)	0.00847

Looking up AGAGAAGCATGGACCGGTTTTCCCGGTAATCCGTATTTGCG (site AGAGAAGCTCG) , I see its recombinant UMI read abundance (log10) listed as 3.09

Looking up AACTGTCCATGGACCGGTTTTCCCGGTAATCCGTATTTGAT (site AACTGTCCTAT) , I see its recombinant UMI read abundance (log10) listed as 0.173

Looking up CACGACCCATGGACCGGTTTTCCCGGTAATCCGTATTTGTT (site CACGCCCCTAA) , I see its recombinant UMI read abundance (log10) listed as 0.0282

Looking up ATGCAGCCATGGACCGGTTTTCCCGGTAATCCGTATTTGAG (site ATGCAGCCTCT) , I see its recombinant UMI read abundance (log10) listed as 0.00247
